- System Tested: KRas G12S (Homo sapiens, UniProt P01116, G12S)
- Construct: Biotinylated KRas (corresponding to amino acids 1-169, produced at Accelegan Inc.); biotin (biotinylated); purchased Accelegan Inc
- Sequence (P01116 1-169 isoform P01116-2 G12S): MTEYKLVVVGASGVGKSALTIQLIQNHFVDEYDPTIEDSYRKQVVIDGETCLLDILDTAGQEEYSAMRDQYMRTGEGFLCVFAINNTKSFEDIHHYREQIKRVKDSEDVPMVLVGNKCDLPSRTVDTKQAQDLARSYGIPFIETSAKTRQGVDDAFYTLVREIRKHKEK
- Assay Procedure: KRas binding assay, TR-FRET displacement of Cy5 labelled tracer
- Condition Parameters: 60-minute incubation at room temperature, 1% DMSO, pH 7.5
Assay Readout: IC50 (nM)
// return numeric value only (unit: nM, not printed)

State its IC50 on KRas G12S (Homo sapiens, UniProt P01116, G12S): COC(=O)C1CCCN(c2nc(OCC34CCCN3CCC4)nc3c(F)c(-c4cccc5cccc(F)c45)ncc23)CC1 (stereo not shown)
54800

Could you share what IC50 was measured for CCc1c(F)ccc2cc(O)cc(-c3ncc4c(N5CC[C@H](C(=O)n6ccc(C)n6)[C@H](C)C5)nc(OC[C@@]56CCCN5C[C@H](F)C6)nc4c3F)c12 , tested on KRas G12S (Homo sapiens, UniProt P01116, G12S)?
17

KRas G12S (Homo sapiens, UniProt P01116, G12S) / IC50 / N#Cc1c(N)sc2c(F)ccc(-c3c(Cl)cc4c(N5CCC(C(=O)Oc6ccccc6Cl)CC5)nc(OC[C@@]56CCCN5C[C@H](F)C6)nc4c3F)c12 : value?
80

Under KRas G12S (Homo sapiens, UniProt P01116, G12S): IC50 value of N#Cc1c(N)sc2c(F)ccc(-c3c(Cl)cc4c(N5CCN(S(=O)(=O)n6ccnn6)CC5)nc(OC[C@@]56CCCN5C[C@H](F)C6)nc4c3F)c12 ?
77

Param readout = IC50; param system = KRas G12S (Homo sapiens, UniProt P01116, G12S); param query = C=Cc1ccn(C(=O)C2CCN(c3nc(OC[C@@]45CCCN4C[C@H](F)C5)nc4c(F)c(-c5cc(O)cc6ccc(F)c(CC)c56)ncc34)CC2)n1 ; response: value
26

Provide value of IC50 for this record tested with KRas G12S (Homo sapiens, UniProt P01116, G12S): CCc1c(F)ccc2cc(O)cc(N3CCc4c(nc(OC[C@@]56CCCN5C[C@H](F)C6)nc4N4CCCCC(C(=O)n5ccc(C)n5)CC4)C3)c12 (stereo partly shown)
10

Enter reported IC50 observed with KRas G12S (Homo sapiens, UniProt P01116, G12S) for CN(C)C(=O)N(C)C(=O)CCCN(C)c1nc(OC[C@@]23CCCN2C[C@H](F)C3)nc2c(F)c(-c3ccc(F)c4sc(N)c(C#N)c34)c(Cl)cc12
8

Notebook entry, KRas G12S (Homo sapiens, UniProt P01116, G12S) assay: IC50 of O=C(Oc1cccnc1)C1CCN(c2nc(OCC34CCCN3CCC4)nc3c(F)c(-c4cccc5cccc(F)c45)ncc23)CC1 = ?
43300

====

- System Tested: KRas G12C (Homo sapiens, UniProt P01116, G12C)
- Construct: Biotinylated KRas (corresponding to amino acids 1-169, produced at Accelegan Inc.); biotin (biotinylated); purchased Accelegan Inc
- Sequence (P01116 1-169 isoform P01116-2 G12C): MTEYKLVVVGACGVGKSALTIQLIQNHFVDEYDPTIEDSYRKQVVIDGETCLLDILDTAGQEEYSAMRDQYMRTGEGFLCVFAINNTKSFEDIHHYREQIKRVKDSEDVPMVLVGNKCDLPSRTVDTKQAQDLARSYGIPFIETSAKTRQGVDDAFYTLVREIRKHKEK
- Assay Procedure: KRas binding assay, TR-FRET displacement of Cy5 labelled tracer
- Condition Parameters: 60-minute incubation at room temperature, 1% DMSO, pH 7.5
- Description: This Example illustrates that exemplary compounds of the present invention bind to KRas and are capable of displacing a labeled tracer ligand occupying the KRas binding site. […] The ability of a compound to bind to KRas was measured using a TR-FRET displacement assay. […] After a 60-minute incubation at room temperature, the reaction was measured using a BMG LABTECH CLARIO star Plus via TR-FRET. […]
Assay Readout: IC50 (nM)
// units = nM; emit number, no label

O=C(Oc1cccc(F)c1F)C1CCN(c2nc(OCC34CCCN3CCC4)nc3c(F)c(-c4cccc5cccc(F)c45)ncc23)CC1 [Example 34] = 7890

Now for another entry.
Which IC50 value belongs to CCc1c(F)ccc2cc(O)cc(-c3ncc4c(N5CCCC(C(=O)n6ccc(C)n6)CCC5)nc(OC[C@@]56CCCN5C[C@H](F)C6)nc4c3F)c12 [Example 54] ?
502

Ref: patent US20260356856A1
